Data credit: patent US20230012273A1

molecular target: T1, human SIRPαV2 extracellular domain + His-tag (CAA71403.1) (human, UniProt P78324 31-373); experiment: SPR, Ab captured, ECD-His analyte
T1 construct: also called hSIRPαV2; HuSIRPαV2
T1 sequence (P78324 other isoform, or with tags, fused parts or gaps): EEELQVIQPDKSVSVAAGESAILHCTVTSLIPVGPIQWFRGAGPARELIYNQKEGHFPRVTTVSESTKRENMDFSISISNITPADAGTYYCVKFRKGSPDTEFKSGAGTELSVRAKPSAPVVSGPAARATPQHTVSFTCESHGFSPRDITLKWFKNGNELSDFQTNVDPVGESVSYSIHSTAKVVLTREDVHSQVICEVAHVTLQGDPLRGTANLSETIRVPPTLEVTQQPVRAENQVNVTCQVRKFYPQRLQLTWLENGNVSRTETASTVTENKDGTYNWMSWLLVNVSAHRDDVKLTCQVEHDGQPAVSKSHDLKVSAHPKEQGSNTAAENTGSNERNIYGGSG
Measured Quantity: pKd
Please treat pKd as minus the base-10 logarithm of the molar concentration.

1. Antibody E1 (antibody, human IgG1, kappa, L234A L235A, V domains shown) VH: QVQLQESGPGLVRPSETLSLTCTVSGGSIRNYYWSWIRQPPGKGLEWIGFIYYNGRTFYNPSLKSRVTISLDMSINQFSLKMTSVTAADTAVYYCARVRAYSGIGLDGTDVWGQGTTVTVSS VL: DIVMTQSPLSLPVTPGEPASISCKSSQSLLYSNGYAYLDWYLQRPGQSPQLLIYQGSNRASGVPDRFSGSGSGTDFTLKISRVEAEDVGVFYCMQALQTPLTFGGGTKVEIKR | 9.20
2. Antibody E8 (antibody, human IgG1, kappa, L234A L235A, V domains shown) VH: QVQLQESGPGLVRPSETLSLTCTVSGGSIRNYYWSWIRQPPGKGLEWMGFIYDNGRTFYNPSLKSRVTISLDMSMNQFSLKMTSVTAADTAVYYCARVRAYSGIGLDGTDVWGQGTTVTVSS VL: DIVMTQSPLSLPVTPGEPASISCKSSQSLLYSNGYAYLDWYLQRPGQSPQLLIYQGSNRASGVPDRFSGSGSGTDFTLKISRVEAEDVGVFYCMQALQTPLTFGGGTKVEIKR | 9.27

Attention now shifts to the item below.
Given the binder Antibody E18 (antibody, human IgG1, kappa, L234A L235A, V domains shown) VH: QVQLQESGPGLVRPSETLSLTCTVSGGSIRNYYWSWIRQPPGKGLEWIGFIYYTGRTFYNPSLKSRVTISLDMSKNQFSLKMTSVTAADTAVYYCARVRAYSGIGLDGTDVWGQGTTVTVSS VL: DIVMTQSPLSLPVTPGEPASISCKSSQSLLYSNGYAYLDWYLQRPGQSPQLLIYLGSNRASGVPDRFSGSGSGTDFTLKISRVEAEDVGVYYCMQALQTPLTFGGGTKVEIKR , write its reported pKd.
9.05
